test system: Wolbachia pipientis; test: Anti-Wolbachia Cell-Based Screen; type: functional; parameters: scale not given: in the data most compounds retested in dose-response had high values; details: 5 µM
The campaign covered roughly 48,000 compounds. About 13,000 (27%) showed an effect of 50% or more. Some of the results follow.
quantity.name: Percent Effect (%)
Your answer is read as %, so omit the unit and give the number.

// worked examples, Percent Effect included
| compound | test.target | value.unit | observed.value |
| --- | --- | --- | --- |
| Cc1ccccc1-n1cnc(Cl)c1CO | Wolbachia pipientis | % | 94.22 |
| CC(=O)N1CCC[C@H]1C(=O)N(C)CCCOc1ccccc1 | Wolbachia pipientis | % | 16.69 |
| O=C(CSc1ccc2c(c1)OCCO2)NS(=O)(=O)c1ccccc1Br | Wolbachia pipientis | % | -0.599 |
| Cc1cc(C)n(-c2cncc(NCCNC(=O)CC3CCCC3)n2)n1 | Wolbachia pipientis | % | 5.332 |
| Cn1cnnc1C1CCN(c2cncc(-n3cccn3)n2)CC1 | Wolbachia pipientis | % | 0.9995 |
| O=C1CCCN1CC1CCCCN1C(=O)Nc1cccc(F)c1 (configuration not stated) | Wolbachia pipientis | % | -9.718 |
| CC(=O)N1CCC[C@H]1C(=O)NCCOc1cccc(Cl)c1 | Wolbachia pipientis | % | 1.208 |
| Cc1cc(C(F)(F)F)nn1CCNC(=O)C(C)n1ccnc1C(C)C (configuration not stated) | Wolbachia pipientis | % | 0.9025 |

What Percent Effect value was documented for this compound, CC(=O)NCCOc1c(C)cccc1C ? -5.514

What Percent Effect value was documented for this compound, CC(=O)N1CCCC1C(=O)NCCOc1c(C)cccc1C (configuration not stated) ? 70.88

What Percent Effect value was documented for this compound, Cc1cc(C)n(CC(C)NC(=O)c2cc(C(C)C)on2)n1 (configuration not stated) ? -21.21

What Percent Effect value was documented for this compound, Cc1cc(C)n(CCCNC(=O)C(C)NC(=O)CC2CCCCC2)n1 (configuration not stated) ? 122.8

###

tested on: Wolbachia pipientis; test: Anti-Wolbachia Cell-Based Screen; assay type: functional; set-up: scale not given: in the data most compounds retested in dose-response had high values; conditions: 5 µM
Out of some 48,000 compounds screened, about 13,000 (27%) showed an effect of 50% or more. This is one part of the list.
Parameter: Percent Effect. Scope: all listed entries.
Your answer is read as %, so omit the unit and give the number.

| compound | test.target | Percent Effect / % |
| --- | --- | --- |
| N#Cc1cn(C2CC2)c(=O)n(Cc2noc(-c3cccs3)n2)c1=O | Wolbachia pipientis | 11.53 |
| COc1ccc(CN2CCCn3cncc3C2)cc1Cn1cncn1 | Wolbachia pipientis | 17.87 |
| Cc1cccc(CC(=O)N2CCCCC2CN)c1.Cl (configuration not stated) | Wolbachia pipientis | -0.4794 |
| COc1ccc(CN2CCCN(c3cc(C(N)=O)ccn3)CC2)cc1 | Wolbachia pipientis | 15.11 |
| CC(=O)Nc1cnc(-n2ccnc2)nc1 | Wolbachia pipientis | 0.9267 |
| CSCCCN1C(=O)CC[C@H]2CN(Cc3ncc[nH]3)CC[C@H]21 | Wolbachia pipientis | -3.327 |

What Percent Effect value was documented for this compound, CCN(C(=O)CN1CCCC1c1ccc(F)cc1)c1ccccc1C (configuration not stated) ? -2.599

What Percent Effect value was documented for this compound, CCOc1cc(=O)n2c(c1C(=O)OCc1ccc(F)cc1)CCCC2 ? 95.56

###

Parameter: Percent Effect. Scope: all listed entries.
test system: Wolbachia pipientis; assay: Anti-Wolbachia Cell-Based Screen; type: functional; design: scale not given: in the data most compounds retested in dose-response had high values; settings: 5 µM
Hit rate of the full screen: of about 48,000 compounds, about 13,000 (27%) showed an effect of 50% or more. The list shows a part of the results.
Your answer is read as %, so omit the unit and give the number.

| compound | value.unit | observed.value |
| --- | --- | --- |
| Cc1noc(C)c1C(=O)N1CC[C@H]2C[C@@H](c3ccncn3)O[C@@H]2C1 | % | -6.202 |

Here is another compound to look at.
What Percent Effect value was documented for this compound, CC(C)N1CC(C(=O)NCCOc2ccc3c(c2)OCO3)CC1=O (stereo unspecified) ? 7.499

###

system: Wolbachia pipientis; assay: Anti-Wolbachia Cell-Based Screen; format: functional; parameters: scale not given: in the data most compounds retested in dose-response had high values; conditions: 5 µM
Among all 48,000 compounds or so, about 13,000 (27%) showed an effect of 50% or more. The list shows a part of the results.
quantity.name: Percent Effect (%)
Your answer is read as %, so omit the unit and give the number.

| compound | Percent Effect [%] |
| --- | --- |
| O=C(C1CCCN1S(=O)(=O)C1CCCC1)N1CCSCC1 (configuration not stated) | -23.1 |
| NC(=O)N1CCCC(c2nc(-c3cccnn3)no2)C1 (configuration not stated) | -17.63 |
| CC(C)(C)c1ccn(C2(C(=O)O)CCN(c3nccc(N)n3)CC2)n1 | -5.25 |

What Percent Effect value was documented for this compound, CCOC(=O)C1(Cc2ccc(Cl)cc2)CCN(Cc2ncc[nH]2)CC1 ? -10.72

What Percent Effect value was documented for this compound, O=C(NC1CCN(Cn2nc(-c3ccccc3)oc2=O)CC1)C1CC1 ? 15.64

What Percent Effect value was documented for this compound, O=C1CCCCCN1CCc1nc(-c2cccnn2)no1 ? 101.6

What Percent Effect value was documented for this compound, CCn1cnnc1C1CCN(C(=O)c2ccc3c(c2)nnn3C)CC1 ? 122.3

What Percent Effect value was documented for this compound, c1cnnc(-c2noc(COCC3CCCO3)n2)c1 (configuration not stated) ? -7.3

What Percent Effect value was documented for this compound, O=C(CSc1ccccc1Cl)NS(=O)(=O)c1ccc2c(c1)OCCO2 ? 0.8211

What Percent Effect value was documented for this compound, Cc1nnc(CN2C[C@H](NC(=O)CC3CCCC3)[C@@H](C3CC3)C2)s1 ? -5.316

What Percent Effect value was documented for this compound, O=C1CCCN1CCc1nc(-c2ccsc2)no1 ? 3.312

What Percent Effect value was documented for this compound, COC(C)C(=O)NS(=O)(=O)c1cccc2cc(C)cnc12 (configuration not stated) ? -12.97

###

tested on: Wolbachia pipientis; test: Anti-Wolbachia Cell-Based Screen; assay type: functional; set-up: scale not given: in the data most compounds retested in dose-response had high values; conditions: 5 µM
The campaign covered roughly 48,000 compounds. About 13,000 (27%) showed an effect of 50% or more. This is one part of the list.
Parameter: Percent Effect. Scope: all listed entries.
Your answer is read as %, so omit the unit and give the number.

What Percent Effect value was documented for this molecule, Cl.Cl.c1ccc2c(c1)C(NC1CCCC1)CC21CCNCC1 (stereo unspecified) ? 102.9

What Percent Effect value was documented for this molecule, O=C(NC1CC1)C1CNCCN1C(=O)CCc1ccc2c(c1)OCO2 (stereo unspecified) ? 13.7

What Percent Effect value was documented for this molecule, CNC(=O)NC1CC2(CCNCC2)c2ccc(C)cc21 (stereo unspecified) ? 2.029

What Percent Effect value was documented for this molecule, O=C(CCc1ccc2c(c1)OCO2)N1CCCC(n2cccn2)C1 (stereo unspecified) ? -13.74

What Percent Effect value was documented for this molecule, Fc1ccc2c(c1)C1(CCNCC1)CC2OCC1CC1 (stereo unspecified) ? -8.217

What Percent Effect value was documented for this molecule, O=C1N(CC2CCCCC2)CCCC1(O)CN1CCc2[nH]ncc2C1 (stereo unspecified) ? -9.247

###

test system: Wolbachia pipientis; assay: Anti-Wolbachia Cell-Based Screen; format: functional; parameters: scale not given: in the data most compounds retested in dose-response had high values; details: 5 µM
Out of some 48,000 compounds screened, about 13,000 (27%) showed an effect of 50% or more. This is one part of the list.
quantity.name: Percent Effect (%)
Your answer is read as %, so omit the unit and give the number.

// worked examples, Percent Effect included
| molecule | test.target | Percent Effect [%] |
| --- | --- | --- |
| CN1CCCC2(CCN(C(=O)CCn3cncn3)C2)C1=O (stereo unspecified) | Wolbachia pipientis | -41.8 |
| COC(=O)C1CN(Cc2ccn(-c3ccc(F)cc3)n2)C[C@@H](C)O1 (stereo partly specified) | Wolbachia pipientis | -6.737 |
| Cc1ccc2oc(=O)n(CC(=O)N3CCC4(CC3)CN(C)C(=O)O4)c2c1 | Wolbachia pipientis | -3.778 |
| Cc1ncc(CNC(=O)Cc2ccc(Cl)cc2)c(C2CCCN2C)n1 (stereo unspecified) | Wolbachia pipientis | -6.333 |
| COCCc1noc(-c2ccc(-c3ccc(N)nc3)nc2)n1 | Wolbachia pipientis | 3.848 |
| CN1CC2(CCN(C(=O)COc3ccc(Cl)cc3Cl)CC2)OC1=O | Wolbachia pipientis | -5.539 |

Value wanted: Percent Effect (Wolbachia pipientis) of entry Cc1noc([C@@H]2CCO[C@@H]3CCN(C(=O)Cc4ccsc4)C[C@@H]32)n1 6.284

Value wanted: Percent Effect (Wolbachia pipientis) of entry CCc1ccc2occ(CC(=O)N3CCC4(CCCN(C)C4=O)C3)c2c1 (stereo unspecified) -37.19

Value wanted: Percent Effect (Wolbachia pipientis) of entry CC(C)(C)SCCNC(=O)[C@@]12CNC[C@@H]1CN(S(C)(=O)=O)C2 5.951

Value wanted: Percent Effect (Wolbachia pipientis) of entry Cc1nn(CC(=O)N2CCC3(CN(C)C(=O)O3)C2)c(=O)c2ccccc12 (stereo unspecified) 94.98

Value wanted: Percent Effect (Wolbachia pipientis) of entry Cc1nc[nH]c1C(=O)N1CCC2(CN(C)C(=O)O2)C1 (stereo unspecified) -7.833
